All figures here come from ChEMBL document CHEMBL1134982.

Biological target: Tyrosine-protein phosphatase non-receptor type 1 (Homo sapiens, UniProt P18031)
Sequence (P18031 whole entry): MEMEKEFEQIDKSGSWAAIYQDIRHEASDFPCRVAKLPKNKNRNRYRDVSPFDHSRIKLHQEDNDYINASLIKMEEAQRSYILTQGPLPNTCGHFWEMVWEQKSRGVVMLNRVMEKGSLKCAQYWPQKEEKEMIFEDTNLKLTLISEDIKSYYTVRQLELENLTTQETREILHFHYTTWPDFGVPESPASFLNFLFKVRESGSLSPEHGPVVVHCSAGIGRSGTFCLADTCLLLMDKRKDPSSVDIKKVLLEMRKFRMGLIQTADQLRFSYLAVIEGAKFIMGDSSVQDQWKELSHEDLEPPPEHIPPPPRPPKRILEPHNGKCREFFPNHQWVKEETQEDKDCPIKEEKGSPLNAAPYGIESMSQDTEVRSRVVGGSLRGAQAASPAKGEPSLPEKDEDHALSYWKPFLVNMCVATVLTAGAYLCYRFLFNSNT
reported.endpoint: IC50 (µM)

A. CC(C)=CCc1cc(-c2oc3cc(O)cc(O)c3c(=O)c2O)cc(O)c1O
B. CC(C)=CCc1cc(C2CCc3ccc(O)cc3O2)cc(O)c1O (stereo not drawn)
C. C=CC(C)(C)c1c(O)cc(O)c2c(=O)c(O)c(-c3cc(O)c(O)c(CC=C(C)C)c3)oc12
Request: Given 3 molecules, produce a descending ranking by IC50. Reply with the labels, ordered as the question asks.
Response: B, A, C
(B: 41.5 µM, A: 21.5 µM, C: 4.3 µM)
